// provenance: patent US20240034792A1

# tested_on: T1, Human PD-1 protein with histidine and avi tags (ACRO Biosystems, PD1-H82E4) (human, UniProt Q15116 25-167)
# T1 construct: Captured on streptavidin (SA) sensors in the BLI assay; not shown: histidine and avi tags
# experiment_summary: BLI (Octet Red96e), PD-1 captured on SA sensor, 1:1 local fit
# Protocol: Human PD-1 proteins with histidine and avi tags were purchased from the manufacturer ACRO Biosystems (Cat#: PD1-H82E4), and the assay buffer was 1× kinetics buffer (diluted from 10× kinetics buffer (ForteBio, Cat#: 18-1105)) for kinetic assay and dilution of antigens and antibodies. The binding kinetics between the antigen and the antibody was analyzed by the biolayer interferometry (BLI) technique using an Octet molecular interaction analyzer (ForteBio, model: Octet Red96e). […]
metric: log10 of Kd (log10 of the value in nM)
Give log10 of Kd, with Kd taken in nM.

Known log10 of Kd results, listed for orientation:
PR005098 (VHH, Monovalent single-domain (VH) variant of PR002481 with Flag-6His tag) VHH: EVQLVETGGGLIQPGGSLRLSCAASGFNVSSHYMSWVRQAPGKGREWVSIIDGGGSTYYADSVKGRFTISRDNSKNRLYLQMNSLRAEDTAMYYCARATQVREKGGYNYPFNYWGQGTLVTVSS = 0.77
PR005100 (VHH, Monovalent single-domain (VH) variant of PR002481 with Flag-6His tag) VHH: EVQLVETGGGLIQPGGSLRLSCAASGFNVSSHYMSWVRQAPGKGREWVSIIDRGGSKYYADSVKGRFTISRDNSKNRLYLQMNSLRAEDTAMYYCARATAVAEKNGYNYPFNYWGQGTLVTVSS = 1.06
PR005145 (VHH, Monovalent single-domain (VH) variant of PR002481 with Flag-6His tag) VHH: EVQLVETGGGLIQPGGSLRLSCAASGFNVSFYYMSWVRQAPGKGREWVSIIDKGGSTYYGDSVKGRFTISRDNSKNRLYLQMNSLRAEDTAMYYCARATEVREKNGYNYPFNYWGQGTLVTVSS = 0.73
PR005147 (VHH, Monovalent single-domain (VH) variant of PR002481 with Flag-6His tag) VHH: EVQLVETGGGLIQPGGSLRLSCAASGFNVSYYYMSWVRQAPGKGREWVSIIDKAGSTYYGASVKGRFTISRDNSKNRLYLQMNSLRAEDTAMYYCARATMVREKNGYNYPFNYWGQGTLVTVSS = 1.22
PR005090 (VHH, Monovalent single-domain (VH) antibody with Flag-6His tag) VHH: EVQLVETGGGLIQPGGSLRLSCAASGFNVSSHYMSWVRQAPGKGREWVSIIDGGGSTYYADSVKGRFTISRDNSKNRLYLQMNSLRAEDTAMYYCARATAVAEKNGYNYPFNYWGQGTLVTVSS = 1.32

Data request: Return reported log10 of Kd; argument: PR005585 (antibody, human IgG1, V domains shown, no light chain; also called anti-PD1 PR002481Com_35 HCAb hIgG1) VH: EVQLVETGGGLIQPGGSLRLSCAASGFTVSSFYMSWVRQAPGKGREWVSIIDKAGSTYYADSVKGRFTISRDNSKNRLYLQMNSLRAEDTAMYYCARATEVREKQGYNYPFNYWGQGTLVTVSS
Data returned: 0.49

Data request: How about this binder: PR005142 (VHH, Monovalent single-domain (VH) variant of PR002481 with Flag-6His tag) VHH: EVQLVETGGGLIQPGGSLRLSCAASGFNVSFYYMSWVRQAPGKGREWVSIIDKGGSGYYAASVKGRFTISRDNSKNRLYLQMNSLRAEDTAMYYCARATEVREKNGYNYPFNYWGQGTLVTVSS
Data returned: 0.83

Data request: // query: PR005101 (VHH, Monovalent single-domain (VH) variant of PR002481 with Flag-6His tag) VHH: EVQLVETGGGLIQPGGSLRLSCAASGFNVSSHYMSWVRQAPGKGREWVSIIDKGGGTYYADSVKGRFTISRDNSKNRLYLQMNSLRAEDTAMYYCARATAVAEKNGYNYPFNYWGQGTLVTVSS
Data returned: 1.77
